# System: contraction of the aorta strip caused by norepinephrine (NE)
# assay-details: Vasodilating action: inhibition of contraction of rabbit aorta strip caused by norepinephrine (NE)
# Format: cell-based
# stated-conditions: Oryctolagus cuniculus, 0.25 h, compound 10^-5 M, NE 10^-6 M, 15 min pretreatment, read-out: Inhibitory percent against contraction, NE
Each item that follows carries a reported inhibition at 10 µM.
measured-parameter: inhibition at 10 µM (%)

{"columns": ["molecule", "value-units", "readout-value"],
 "data": [
  ["Cc1cc2c(cc1C)SC(CCCN1CCN(c3ccc(F)cc3)CC1)C(=O)N2 (stereo not shown)", "%", 100],
  ["Cc1cccc2c1NC(=O)C(CCCN1CCN(c3ccc(F)cc3)CC1)S2 (stereo not shown)", "%", 100],
  ["COc1ccccc1N1CCN(CCCC2Sc3ccccc3NC2=O)CC1 (stereo not shown)", "%", 100],
  ["O=C1Nc2ccccc2SC1CCN1CCN(c2ccc(F)cc2)CC1 (stereo not shown)", "%", 60],
  ["CCN1C(=O)C(CCN2CCN(c3ccccc3OC)CC2)Sc2ccccc21 (stereo not shown)", "%", 100],
  ["O=C1Nc2ccccc2SC1CCCCN1CCN(c2ccc(F)cc2)CC1 (stereo not shown)", "%", 100],
  ["CN1C(=O)C(CCN2CCN(c3ccc(F)cc3)CC2)Sc2ccccc21 (stereo not shown)", "%", 90]
]}
